MEASURED TARGET: IRAK1 (human) (UniProt P51617)
Sequence (P51617 whole entry, looked up): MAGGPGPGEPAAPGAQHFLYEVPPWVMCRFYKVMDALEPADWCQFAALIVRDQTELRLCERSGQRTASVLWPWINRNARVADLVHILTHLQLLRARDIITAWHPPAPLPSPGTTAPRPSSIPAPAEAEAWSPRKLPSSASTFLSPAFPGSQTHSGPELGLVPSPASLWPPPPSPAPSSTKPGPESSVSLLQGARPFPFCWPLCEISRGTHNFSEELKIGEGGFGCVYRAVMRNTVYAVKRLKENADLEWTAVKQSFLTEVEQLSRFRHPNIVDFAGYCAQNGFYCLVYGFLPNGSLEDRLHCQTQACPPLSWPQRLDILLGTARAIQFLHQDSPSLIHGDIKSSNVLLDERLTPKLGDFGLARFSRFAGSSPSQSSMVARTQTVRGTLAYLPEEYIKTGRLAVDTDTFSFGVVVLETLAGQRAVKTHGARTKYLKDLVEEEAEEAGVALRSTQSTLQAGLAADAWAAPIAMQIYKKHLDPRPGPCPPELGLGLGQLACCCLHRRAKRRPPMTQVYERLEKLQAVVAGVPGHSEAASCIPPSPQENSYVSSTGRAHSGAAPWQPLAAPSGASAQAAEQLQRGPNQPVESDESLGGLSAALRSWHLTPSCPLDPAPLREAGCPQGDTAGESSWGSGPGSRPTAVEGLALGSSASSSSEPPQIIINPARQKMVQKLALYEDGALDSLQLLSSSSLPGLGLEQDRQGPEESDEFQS
TEST METHOD NOTES: KINOMEscan competition binding
TEST CONDITIONS: compound 10.0 µM
REPORTED PROPERTY: kinase still bound, per cent of control
Just the number plus its unit, please.

Illustrative cases are given below, each with its answer.
MOL SMILES | OBSERVED MEASUREMENT
CCN1CCN(Cc2ccc(Nc3ncc4c(n3)N(C)c3ccccc3C(=O)N4C)cc2C(F)(F)F)CC1 | 25%
O=C(NC1CC1)c1cccc(-c2ccc3c(NC(=O)C4CC4)n[nH]c3c2)c1 | 82%

Now consider the entry below.
## Task Param item = O=C(O)c1ccc(Nc2ncc3c(n2)-c2ccc(Cl)cc2C(c2c(F)cccc2F)=NC3)cc1 ; retrieve measured kinase still bound, per cent of control.
## Result 93%

----------
MEASURED TARGET: UniProt P29317
Sequence (P29317 whole entry, looked up): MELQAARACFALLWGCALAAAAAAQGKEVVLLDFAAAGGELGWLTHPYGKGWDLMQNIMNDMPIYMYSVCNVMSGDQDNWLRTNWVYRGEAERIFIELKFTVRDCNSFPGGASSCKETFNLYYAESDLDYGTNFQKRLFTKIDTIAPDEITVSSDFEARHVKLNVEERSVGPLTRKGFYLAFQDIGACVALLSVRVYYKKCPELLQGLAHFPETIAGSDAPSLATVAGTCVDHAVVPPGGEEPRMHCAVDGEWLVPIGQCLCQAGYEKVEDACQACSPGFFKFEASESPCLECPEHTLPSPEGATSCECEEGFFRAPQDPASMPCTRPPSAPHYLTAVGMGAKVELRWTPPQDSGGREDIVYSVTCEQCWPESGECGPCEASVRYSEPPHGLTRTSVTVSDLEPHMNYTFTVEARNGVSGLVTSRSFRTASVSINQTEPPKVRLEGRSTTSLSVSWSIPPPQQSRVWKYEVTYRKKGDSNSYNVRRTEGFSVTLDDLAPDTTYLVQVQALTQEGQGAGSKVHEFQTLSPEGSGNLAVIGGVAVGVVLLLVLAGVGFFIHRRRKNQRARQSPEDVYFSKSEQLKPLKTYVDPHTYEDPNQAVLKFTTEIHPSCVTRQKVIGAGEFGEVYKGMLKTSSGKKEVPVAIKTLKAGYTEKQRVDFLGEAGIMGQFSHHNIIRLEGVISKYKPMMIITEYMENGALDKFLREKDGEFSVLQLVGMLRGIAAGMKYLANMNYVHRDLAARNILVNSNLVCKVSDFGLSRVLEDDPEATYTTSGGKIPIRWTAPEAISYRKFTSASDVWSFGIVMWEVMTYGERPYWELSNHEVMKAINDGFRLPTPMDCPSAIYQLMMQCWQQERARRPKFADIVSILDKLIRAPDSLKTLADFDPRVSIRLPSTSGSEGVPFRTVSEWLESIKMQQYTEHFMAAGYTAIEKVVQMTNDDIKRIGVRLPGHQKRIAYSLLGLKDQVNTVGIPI
TEST METHOD NOTES: KINOMEscan competition binding
TEST CONDITIONS: compound 10.0 µM
REPORTED PROPERTY: kinase still bound, per cent of control (%)
Numbers only; they are read as %.

MOLECULE | MEASURED TARGET | kinase still bound, per cent of control [%]
Cc1ccc(C(=O)Nc2cccc(C(F)(F)F)c2)cc1Nc1cncc(C(N)=O)c1 | UniProt P29317 | 2.2
COc1cc(C(=O)NC2CCN(C)CC2)ccc1Nc1ncc2c(n1)N(C1CCCC1)C(C)CC(=O)N2C (centres undefined) | UniProt P29317 | 100
Cc1ccc2nc(NCCN)c3ncc(C)n3c2c1 | UniProt P29317 | 93
OCCCNc1cc(-c2ccnc(Nc3cccc(Cl)c3)n2)ccn1 | UniProt P29317 | 100
C=CC(=O)Nc1cccc(Oc2nc(Nc3ccc(N4CCN(C)CC4)cc3OC)ncc2Cl)c1 | UniProt P29317 | 100

## Task Param item = CCN1CCN(Cc2ccc(Nc3ncc4c(n3)N(C)c3ccccc3C(=O)N4C)cc2C(F)(F)F)CC1 ; retrieve measured kinase still bound, per cent of control.
## Result 83

## Task Param item = C[C@@H](Oc1cc(-n2cnc3ccc(CN4CCN(C)CC4)cc32)sc1C(N)=O)c1ccccc1C(F)(F)F ; retrieve measured kinase still bound, per cent of control.
## Result 92

----------
System: EGFR (human), P00533 [P753S; 747-752 del]
TEST METHOD NOTES: KINOMEscan competition binding
TEST CONDITIONS: compound 10.0 µM
REPORTED PROPERTY: kinase still bound, per cent of control
Just the number plus its unit, please.

COMPOUND | MEASURED TARGET | OBSERVED MEASUREMENT
CCOc1cc(N2CCC(O)CC2)ccc1Nc1ncc2c(n1)N(C)c1ccccc1C(=O)N2C | EGFR (human), P00533 [P753S; 747-752 del] | 100%
O=C1Nc2ccc(I)cc2/C1=C/c1cc(Br)c(O)c(Br)c1 | EGFR (human), P00533 [P753S; 747-752 del] | 50%
O=C(NC1CC1)c1cccc(-c2ccc3c(NC(=O)C4CC4)n[nH]c3c2)c1 | EGFR (human), P00533 [P753S; 747-752 del] | 96%
CC1=C(C(=O)Nc2cc3cn[nH]c3cc2F)C(c2ccc(C(F)(F)F)cc2)CC(=O)N1 (stereo unspecified) | EGFR (human), P00533 [P753S; 747-752 del] | 100%
Cc1cn(-c2cc(C(=O)Nc3ccc(C)c(NC(=O)c4ccno4)c3)cc(C(F)(F)F)c2)cn1 | EGFR (human), P00533 [P753S; 747-752 del] | 100%

## Task Param item = N#CCNC(=O)c1ccc(-c2ccnc(Nc3ccc(N4CCOCC4)cc3)n2)cc1 ; retrieve measured kinase still bound, per cent of control.
## Result 100%

## Task Param item = O=c1cc(N2CCOCC2)oc2c(-c3cccc4c3sc3ccccc34)cccc12 ; retrieve measured kinase still bound, per cent of control.
## Result 90%

## Task Param item = OCCCNc1cc(-c2ccnc(Nc3cccc(Cl)c3)n2)ccn1 ; retrieve measured kinase still bound, per cent of control.
## Result 100%

## Task Param item = Cc1cc([C@@H](C)Nc2ccccc2C(=O)O)c2nc(N3CCOCC3)cc(=O)n2c1 ; retrieve measured kinase still bound, per cent of control.
## Result 100%

## Task Param item = C=CC(=O)Nc1cccc(Oc2nc(Nc3ccc(N4CCN(C)CC4)cc3OC)ncc2Cl)c1 ; retrieve measured kinase still bound, per cent of control.
## Result 0.4%

## Task Param item = CC(=O)c1c(C)c2cnc(Nc3ccc(N4CCNCC4)cn3)nc2n(C2CCCC2)c1=O ; retrieve measured kinase still bound, per cent of control.
## Result 87%

## Task Param item = COc1cc(C(=O)N2CCC(N3CCN(C)CC3)CC2)ccc1Nc1ncc2c(n1)N(C)c1ccccc1C(=O)N2C ; retrieve measured kinase still bound, per cent of control.
## Result 84%

## Task Param item = CNC(=O)c1ccc(Nc2cc(Nc3ccccc3S(=O)(=O)C(C)C)c3cc[nH]c3n2)nc1 ; retrieve measured kinase still bound, per cent of control.
## Result 100%

## Task Param item = Cc1ccc2nc(NCCN)c3ncc(C)n3c2c1 ; retrieve measured kinase still bound, per cent of control.
## Result 100%

## Task Param item = CCCS(=O)(=O)Nc1ccc(F)c(C(=O)c2c[nH]c3ncc(Cl)cc23)c1F ; retrieve measured kinase still bound, per cent of control.
## Result 85%

## Task Param item = C=CC(=O)Nc1ccc(CN(C(=O)Nc2c(Cl)c(OC)cc(OC)c2Cl)c2cc(Nc3ccc(N4CCN(C)CC4)cc3)ncn2)cc1 ; retrieve measured kinase still bound, per cent of control.
## Result 0.45%

## Task Param item = COc1cc2ncnc(-n3nc(-c4ccccn4)nc3N)c2cc1OC ; retrieve measured kinase still bound, per cent of control.
## Result 68%

## Task Param item = C=CC(=O)Nc1cc(-n2c(=O)ccc3cnc4ccc(-c5cn[nH]c5)cc4c32)ccc1C ; retrieve measured kinase still bound, per cent of control.
## Result 53%

## Task Param item = CNC(=O)Nc1ccc(-c2nc(N3CC4CCC(C3)O4)c3cnn(C4CCC5(CC4)OCCO5)c3n2)cc1 ; retrieve measured kinase still bound, per cent of control.
## Result 62%

## Task Param item = O=C(Nc1cccc(Nc2ncc(Br)c(NCCc3cnc[nH]3)n2)c1)N1CCCC1 ; retrieve measured kinase still bound, per cent of control.
## Result 63%

## Task Param item = COc1cc(C)c(Sc2cnc(NC(=O)c3ccc(CNC(C)C(C)C)cc3)s2)cc1C(=O)N1CCN(C(C)=O)CC1 (stereo unspecified) ; retrieve measured kinase still bound, per cent of control.
## Result 100%

----------
The reader will find reported kinase still bound, per cent of control values listed item by item below.
MEASURED TARGET: PAK6 (human)
TEST METHOD NOTES: KINOMEscan competition binding
TEST CONDITIONS: compound 10.0 µM
Just the number plus its unit, please.

MOL SMILES | kinase still bound, per cent of control
Cc1ccc(C(=O)Nc2cccc(C(F)(F)F)c2)cc1Nc1cncc(C(N)=O)c1 | 100%
Cn1c(=O)n(-c2ccc(C(C)(C)C#N)cc2)c2c3cc(-c4cnc5ccccc5c4)ccc3ncc21 | 100%

Now consider the entry below.
## Task Param item = COc1cc(C(=O)NC2CCN(C)CC2)ccc1Nc1ncc2c(n1)N(C1CCCC1)CCC(=O)N2C(C)C ; retrieve measured kinase still bound, per cent of control.
## Result 100%

----------
MEASURED TARGET: NEK1 (human) (UniProt Q96PY6)
Sequence (Q96PY6 whole entry, looked up): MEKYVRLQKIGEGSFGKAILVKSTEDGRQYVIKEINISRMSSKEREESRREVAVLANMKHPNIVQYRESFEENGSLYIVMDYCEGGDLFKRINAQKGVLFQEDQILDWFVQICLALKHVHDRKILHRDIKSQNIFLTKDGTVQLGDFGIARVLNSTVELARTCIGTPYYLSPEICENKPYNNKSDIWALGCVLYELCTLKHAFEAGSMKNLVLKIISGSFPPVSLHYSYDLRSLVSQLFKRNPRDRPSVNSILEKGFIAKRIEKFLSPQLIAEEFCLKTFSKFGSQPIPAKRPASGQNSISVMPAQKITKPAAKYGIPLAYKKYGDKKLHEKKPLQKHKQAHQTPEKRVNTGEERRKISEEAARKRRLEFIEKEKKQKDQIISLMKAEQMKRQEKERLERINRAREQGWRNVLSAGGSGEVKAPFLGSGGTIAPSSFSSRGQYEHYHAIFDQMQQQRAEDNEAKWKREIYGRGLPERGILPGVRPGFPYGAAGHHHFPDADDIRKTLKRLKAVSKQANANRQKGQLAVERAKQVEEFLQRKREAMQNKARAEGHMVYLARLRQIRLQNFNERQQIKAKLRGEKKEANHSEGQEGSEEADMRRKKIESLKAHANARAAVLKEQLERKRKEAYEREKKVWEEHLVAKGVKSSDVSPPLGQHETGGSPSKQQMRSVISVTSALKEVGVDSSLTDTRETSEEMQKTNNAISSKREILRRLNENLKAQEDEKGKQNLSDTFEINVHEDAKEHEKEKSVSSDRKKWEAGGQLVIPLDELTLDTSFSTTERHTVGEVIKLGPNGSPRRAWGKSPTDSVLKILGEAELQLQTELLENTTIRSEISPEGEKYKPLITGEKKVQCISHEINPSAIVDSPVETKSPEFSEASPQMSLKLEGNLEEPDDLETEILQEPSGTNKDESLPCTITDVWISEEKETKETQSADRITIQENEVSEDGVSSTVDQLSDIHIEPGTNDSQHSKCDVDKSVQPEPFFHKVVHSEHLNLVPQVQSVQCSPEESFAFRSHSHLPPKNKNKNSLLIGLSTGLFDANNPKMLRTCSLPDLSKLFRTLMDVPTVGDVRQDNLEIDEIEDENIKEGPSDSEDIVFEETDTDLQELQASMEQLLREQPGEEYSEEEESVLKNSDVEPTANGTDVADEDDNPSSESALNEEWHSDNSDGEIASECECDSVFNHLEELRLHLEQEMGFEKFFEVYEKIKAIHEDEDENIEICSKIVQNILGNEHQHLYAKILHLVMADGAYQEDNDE
TEST METHOD NOTES: KINOMEscan competition binding
TEST CONDITIONS: compound 10.0 µM
REPORTED PROPERTY: kinase still bound, per cent of control (%)
Numbers only; they are read as %.

Illustrative cases are given below, each with its answer.
MOL SMILES | MEASURED TARGET | UNIT | kinase still bound, per cent of control
COc1cc(N2CCN(C)CC2)ccc1Nc1nc(N)c(C(=O)c2c(Cl)cccc2Cl)s1 | NEK1 (human) (UniProt Q96PY6) | % | 75
Cc1ccc(NC(=O)c2cccc(C(C)(C)C#N)c2)cc1Nc1ccc2ncn(C)c(=O)c2c1 | NEK1 (human) (UniProt Q96PY6) | % | 100

Now consider the entry below.
## Task Param item = Cc1cc([C@@H](C)Nc2ccccc2C(=O)O)c2nc(N3CCOCC3)cc(=O)n2c1 ; retrieve measured kinase still bound, per cent of control.
## Result 85

----------
MEASURED TARGET: RIOK2 (human) (UniProt Q9BVS4)
Sequence (Q9BVS4 whole entry, looked up): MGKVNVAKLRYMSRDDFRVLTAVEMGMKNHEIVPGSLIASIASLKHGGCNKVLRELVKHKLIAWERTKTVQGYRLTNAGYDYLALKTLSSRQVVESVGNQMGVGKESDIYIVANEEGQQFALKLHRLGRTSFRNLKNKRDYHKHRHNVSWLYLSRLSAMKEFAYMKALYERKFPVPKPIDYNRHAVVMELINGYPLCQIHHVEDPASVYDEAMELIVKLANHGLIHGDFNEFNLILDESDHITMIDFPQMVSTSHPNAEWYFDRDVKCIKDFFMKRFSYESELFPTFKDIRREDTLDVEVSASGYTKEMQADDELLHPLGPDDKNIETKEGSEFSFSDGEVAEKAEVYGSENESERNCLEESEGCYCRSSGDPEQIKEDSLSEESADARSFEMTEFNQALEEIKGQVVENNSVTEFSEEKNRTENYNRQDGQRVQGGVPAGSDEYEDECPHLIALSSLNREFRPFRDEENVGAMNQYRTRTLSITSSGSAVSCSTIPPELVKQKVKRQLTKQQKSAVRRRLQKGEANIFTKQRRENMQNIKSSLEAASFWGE
TEST METHOD NOTES: KINOMEscan competition binding
TEST CONDITIONS: compound 10.0 µM
REPORTED PROPERTY: kinase still bound, per cent of control
Just the number plus its unit, please.

MOL SMILES | REPORTED PROPERTY | OBSERVED MEASUREMENT
CCCS(=O)(=O)Nc1ccc(F)c(C(=O)c2c[nH]c3ncc(-c4ccc(Cl)cc4)cc23)c1F | kinase still bound, per cent of control | 100%
O=C(O)c1ccc(Nc2ncc3c(n2)-c2ccc(Cl)cc2C(c2c(F)cccc2F)=NC3)cc1 | kinase still bound, per cent of control | 99%
Cc1ccc2nc(NCCN)c3ncc(C)n3c2c1 | kinase still bound, per cent of control | 79%

## Task Param item = C=CC(=O)Nc1cccc(Oc2nc(Nc3ccc(N4CCN(C)CC4)cc3OC)ncc2Cl)c1 ; retrieve measured kinase still bound, per cent of control.
## Result 12%
